Items are presented alongside their recorded GI50.
system name: TEL-CSF1R-BaF3 (Homo sapiens, UniProt P07333)
Construct: expressed in transfected cells; host or cells: mouse BaF3 cells (ATCC), retroviral transduction with MSCV-Puro vector, IL-3 withdrawn; the other entry of the earlier key: ETV6 (P41212, Transcription factor ETV6)
Sequence (P07333 582-910 limits assumed): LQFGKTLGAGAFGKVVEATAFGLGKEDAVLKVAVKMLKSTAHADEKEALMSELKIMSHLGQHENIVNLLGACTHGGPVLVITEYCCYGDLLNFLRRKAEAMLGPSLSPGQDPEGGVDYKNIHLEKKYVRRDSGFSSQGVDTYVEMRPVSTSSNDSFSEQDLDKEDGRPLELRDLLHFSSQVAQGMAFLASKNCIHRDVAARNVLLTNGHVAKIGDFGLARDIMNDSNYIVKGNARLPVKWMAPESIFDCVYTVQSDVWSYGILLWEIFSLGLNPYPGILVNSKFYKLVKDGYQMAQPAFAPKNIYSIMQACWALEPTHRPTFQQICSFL
assay info: Proliferation of TEL-CSF1R-BaF3 cells (CCK-8, 72 hours)
Assay type: cell-based
test conditions: 72 hours incubation, CCK-8
attribute measured: GI50 (µM)

In [3]: df
Out[3]:
                                    molecule                               system_name  units_of_measure  result_operator  value
 0  COc1cc2nccc(Oc3ccc(NC(=O)Cc4ccc(Cl)c(C(F)(F)F)c4)cc3Cl)c2cc1OC  TEL-CSF1R-BaF3 (Homo sapiens, UniProt P07333)                µM                =  0.026
 1  COc1cc2nccc(Oc3ccc(NC(=O)Cc4ccc(Cl)c(C(F)(F)F)c4)cc3C#N)c2cc1OC  TEL-CSF1R-BaF3 (Homo sapiens, UniProt P07333)                µM                =  0.022
 2  COc1cc2nccc(Oc3ccc(NC(=O)NCCCN4CCOCC4)cc3)c2cc1OC  TEL-CSF1R-BaF3 (Homo sapiens, UniProt P07333)                µM                =  0.012
 3  COc1cc2nccc(Oc3ccc(NC(=O)Cc4ccc(Cl)c(C(F)(F)F)c4)cc3)c2cc1OC  TEL-CSF1R-BaF3 (Homo sapiens, UniProt P07333)                µM                =  0.003
 4  COc1cc2nccc(Oc3ccc(NC(=O)Cc4ccccc4)cn3)c2cc1OC [Comparative Example 1, reference compound]  TEL-CSF1R-BaF3 (Homo sapiens, UniProt P07333)                µM                >     10
 5  COc1cc2nccc(Oc3ccc(NC(=O)Cc4ccc(F)cc4F)cc3)c2cc1OC  TEL-CSF1R-BaF3 (Homo sapiens, UniProt P07333)                µM                =  0.003
 6  COc1cc2nccc(Oc3ccc(NC(=O)Cc4ccc(Cl)c(C(F)(F)F)c4)cc3C)c2cc1OC  TEL-CSF1R-BaF3 (Homo sapiens, UniProt P07333)                µM                =  0.003
 7  COc1cc2nccc(Oc3ccc(NC(=O)Cc4ccc(C(F)(F)F)cc4)cc3)c2cc1OC  TEL-CSF1R-BaF3 (Homo sapiens, UniProt P07333)                µM                =  0.002
 8  COc1cc2nccc(Oc3ccc(NC(=O)Cc4ccc(F)c(C(F)(F)F)c4)cc3)c2cc1OC  TEL-CSF1R-BaF3 (Homo sapiens, UniProt P07333)                µM                =  0.002
 9  COc1cccc(CC(=O)Nc2ccc(Oc3ncnc4cc(OC)c(OC)cc34)cc2)c1 [Comparative Example 4, reference compound]  TEL-CSF1R-BaF3 (Homo sapiens, UniProt P07333)                µM                =   0.17
10  COc1cc2nccc(Oc3ncc(NC(=O)Cc4cccc(C(F)(F)F)c4)cc3Cl)c2cc1OC [Comparative Example 2, reference compound]  TEL-CSF1R-BaF3 (Homo sapiens, UniProt P07333)                µM                =   2.54
11  COc1cc2nccc(Oc3ccc(NC(=O)Cc4ccc5c(c4)OCO5)cc3)c2cc1OC  TEL-CSF1R-BaF3 (Homo sapiens, UniProt P07333)                µM                =  0.002
12  COc1cc2nccc(Oc3ccc(NC(=O)Cc4ccc(Cl)c(F)c4)cc3)c2cc1OC  TEL-CSF1R-BaF3 (Homo sapiens, UniProt P07333)                µM                =  0.001
13  COc1cc2nccc(Oc3ccc(NC(=O)Cc4ccc(Cl)c(C(F)(F)F)c4)c(C)c3)c2cc1OC  TEL-CSF1R-BaF3 (Homo sapiens, UniProt P07333)                µM                =  0.006
14  COc1cc2nccc(Oc3ccc(NC(=O)Cc4ccccc4C(F)(F)F)cc3)c2cc1OC  TEL-CSF1R-BaF3 (Homo sapiens, UniProt P07333)                µM                =  0.007
15  COc1cc2nccc(Oc3ccc(NC(=O)Cc4ccc(Cl)c(C(F)(F)F)c4)c(F)c3)c2cc1OC  TEL-CSF1R-BaF3 (Homo sapiens, UniProt P07333)                µM                =  0.002

The measurements presented in this section are drawn from patent US20250186452A1.
